Test system: L. donovani amastigotes
Procedure Summary: Intramacrophage L. donovani assay (Ld InMac)
Assay type: cell-based, Leishmania donovani
Study Conditions: supplement sheet
Items are presented alongside their recorded LdInMac pIC50.
Just the number, please, no unit attached.

Recorded results for 4 molecules are shown here.
record_smiles=COc1ccccc1-c1nc(-c2nc(C)n[nH]2)c(O)c2ncccc12 observed_result=6.2
record_smiles=O=C(NCc1ccc(Cl)cc1)c1nc(NC2CCOCC2)c2cccnc2c1O observed_result=5.3
record_smiles=Cc1n[nH]c(-c2nc(-c3ccccc3)c3cccnc3c2O)n1 observed_result=5.9
record_smiles=Cc1n[nH]c(-c2nc(N3CCOCC3)c3cccnc3c2O)n1 observed_result=5

Now consider a different molecule.
For "Cc1n[nH]c(-c2nc(NCc3ccc(Cl)cc3)c3cccnc3c2O)n1" , what is its reported LdInMac pIC50?
5.8

----------
Procedure Summary: Chrom Log D pH7.4
Type: physicochemical
Study Conditions: chromatographic (HPLC retention) system, pH 7.4; supplement sheet; read-out: ChromLogD
As shown below, each of these molecules has a reported chromatographic logD value.

molecule=COc1ccccc1-c1nc(C(=O)N[C@H]2CC[C@H](OC)CC2)c(O)c2ncccc12 measured_metric="chromatographic logD" observed_result=5.7

// moving on: another record for chromatographic logD
For the molecule shown here, CC(NC(=O)c1ncc2cccnc2c1O)c1ccc(F)cc1 (centres unmarked) , give the reported chromatographic logD.
5.1

----------
Procedure Summary: Mouse liver microsomal intrinsic clearance
Type: in vitro ADME
Study Conditions: supplement sheet
Measured Metric: Cli (mouse, ml/min/g) (mL/min/g)
Use mL/min/g as the unit, but write only the number.

compound=CNc1nc(-c2nc(C)n[nH]2)c(O)c2ncccc12 observed_result=3.1

Now look at this one.
Need Cli (mouse, ml/min/g), item CC(NC(=O)c1ncc2cccnc2c1O)c1ccc(F)cc1 (stereo not drawn)
3.7

----------
Form field: solubility kinetic (one value per entry).
Procedure Summary: Kinetic aqueous solubility
Assay type: physicochemical
Study Conditions: kinetic; read-out: Aq Solubility (kinetic aqueous solubility)

Worked cases, solubility kinetic given:
molecule=Cc1n[nH]c(-c2nc(N3CCCC3=O)c3cccnc3c2O)n1 observed_result="109 µM"
molecule=CNc1nc(-c2nc(C)n[nH]2)c(O)c2ncccc12 observed_result=">250 µM"
molecule="O=C(NCc1ccc(F)cc1)c1nc(N2CCCCS2(=O)=O)c2cccnc2c1O [Compound 30, reference compound]" observed_result="> 250 µM"
molecule=O=C(NCc1ccc(Cl)cc1)c1nc(NC2CCOCC2)c2cccnc2c1O observed_result=">250 µM"
molecule="CC(NC(=O)c1ncc2cccnc2c1O)c1ccc(F)cc1 (stereo not shown)" observed_result="> 250 µM"
molecule=COc1ccccc1-c1nc(C(=O)N[C@H]2CC[C@H](OC)CC2)c(O)c2ncccc12 observed_result="> 250 µM"
molecule=Cc1n[nH]c(-c2nc(NCc3ccc(Cl)cc3)c3cccnc3c2O)n1 observed_result="219 µM"
molecule=COc1ccccc1-c1nc(-c2nc(C)n[nH]2)c(O)c2ncccc12 observed_result=">250 µM"

Which solubility kinetic value is on record for "Cc1n[nH]c(-c2nc(N3CCOCC3)c3cccnc3c2O)n1" ?
>250 µM

Would you mind doing "Cc1n[nH]c(-c2nc(-c3ccccc3)c3cccnc3c2O)n1" as well?
160 µM

----------
Procedure Summary: Kinetic aqueous solubility
Assay type: physicochemical
Study Conditions: aqueous medium (not further specified); supplement sheet
Experimental: These assays were conducted as previously described.[23]
Measured Metric: solubility

compound="CC(NC(=O)c1ncc2cccnc2c1O)c1ccc(F)cc1 (centres unmarked)" measured_metric=solubility observed_result="> 250 µg/mL"

Now examine the next entry.
Request the reported solubility associated with "COc1ccccc1-c1nc(C(=O)N[C@H]2CC[C@H](OC)CC2)c(O)c2ncccc12"
> 250 µg/mL

----------
Procedure Summary: Chrom Log D pH7.4
Type: physicochemical
Study Conditions: pH 7.4
Description: This assay was conducted as previously described.[11]
The following molecules are shown together with reported ChromLogDpH7.4 values.
Reply briefly: the number, and no unit.

Solved cases (4 shown):
molecule="COc1ccccc1-c1nc(-c2nc(C)n[nH]2)c(O)c2ncccc12 [Compound 16]" observed_result=3.2
molecule="Cc1n[nH]c(-c2nc(NCc3ccc(Cl)cc3)c3cccnc3c2O)n1 [Compound 10]" observed_result=4.4
molecule="O=C(NCc1ccc(Cl)cc1)c1nc(NC2CCOCC2)c2cccnc2c1O [Compound 31]" observed_result=5.3
molecule="CNc1nc(-c2nc(C)n[nH]2)c(O)c2ncccc12 [Compound 8]" observed_result=-0.2

For the molecule Cc1n[nH]c(-c2nc(N3CCOCC3)c3cccnc3c2O)n1 [Compound 11] , what ChromLogDpH7.4 is on record?
1.8

----------
Procedure Summary: Mouse liver microsomal intrinsic clearance
Assay type: in vitro ADME
Study Conditions: mouse liver microsomes
Measured Metric: Cli (mouse liver microsomal intrinsic clearance) (mL/min/g)
Please state the figure in mL/min/g; there is no need to write the unit.

Illustrative cases are given below, each with its answer.
compound="O=C(NCc1ccc(F)cc1)c1nc(N2CCCCS2(=O)=O)c2cccnc2c1O [Compound 30, reference compound]" observed_result=2.0
compound=Cc1n[nH]c(-c2nc(NCc3ccc(Cl)cc3)c3cccnc3c2O)n1 observed_result=3.4

Please turn your attention to the following entry.
Any idea what its Cli (mouse liver microsomal intrinsic clearance) is? The compound is CC(NC(=O)c1ncc2cccnc2c1O)c1ccc(F)cc1 (stereo not drawn)
3.7

----------
Test system: L. donovani amastigotes
Procedure Summary: Intramacrophage L. donovani assay (Ld InMac)
Format: cell-based, Leishmania donovani
Study Conditions: supplement sheet
Each record here notes measured LdInMac pIC50.

Use the examples below as a reference point.
compound="O=C(NCc1ccc(F)cc1)c1nc(N2CCCCS2(=O)=O)c2cccnc2c1O [Compound 30, reference compound]" observed_result=<4.3
compound=Cc1n[nH]c(-c2nc(N3CCCC3=O)c3cccnc3c2O)n1 observed_result=<4.3

Moving on to another compound below.
Give its LdInMac pIC50 value. Item: "CNc1nc(-c2nc(C)n[nH]2)c(O)c2ncccc12"
<4.3
